tested on: Mycolicibacterium smegmatis; assay: Antitubercular activity against dormant Mycobacterium smegmatis MC2 155 at 30 ug after 12 days by XTT-Menadione assay; type: functional, str. MC2 155
Please respond with reported inhibition (INH) for every item in the list.
Give your result as the value with the unit written after it.

{"molecule": "Nc1nccnc1C(=O)NN1C(=O)CSC1c1ccc(Cl)cc1Cl (centres undefined)", "inhibition (INH)": "33.52%"}

Here are 3 molecules. What values of inhibition (INH) were reported for them?
1. Cc1cnc(C(=O)NN2C(=O)CS[C@@H]2c2ccc([N+](=O)[O-])cc2)cn1
2. COc1ccc([C@H]2SCC(=O)N2NC(=O)c2nccnc2N)cc1OC
3. Cc1cnc(C(=O)NN2C(=O)CSC2c2ccccc2)cn1 (centres undefined)

Result:
1: 10.44%; 2: 31.62%; 3: 61.3106%
